Data origin: patent US20200407712A1

biological target: human diaphorase (NQO1) (Homo sapiens); construct: purchased SigmaAldrich; experiment: Alexa Fluor 555-diaphorase binding to linear and lactam constrained peptide microarrays; details: linear library peptide; 10.0 nM protein applied to the array
Sequence (P15559 whole entry): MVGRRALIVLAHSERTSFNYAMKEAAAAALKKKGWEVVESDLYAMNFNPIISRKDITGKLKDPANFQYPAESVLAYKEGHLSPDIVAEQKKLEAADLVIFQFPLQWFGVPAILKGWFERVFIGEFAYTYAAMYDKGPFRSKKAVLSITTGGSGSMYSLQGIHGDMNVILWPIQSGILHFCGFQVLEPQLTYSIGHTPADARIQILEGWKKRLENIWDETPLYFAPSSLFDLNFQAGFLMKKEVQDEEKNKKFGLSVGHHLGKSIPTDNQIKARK
MEASURED_METRIC: Diaphorase Linear, log 10 transformed median intensity
Note: the reply should be a number with no unit written.

# returns recorded Diaphorase Linear, log 10 transformed median intensity (system: human diaphorase (NQO1) (Homo sapiens)) for PNYSSAP [library array peptide, tested lactam constrained and linear] 3.91

Can you look up Diaphorase Linear, log 10 transformed median intensity on human diaphorase (NQO1) (Homo sapiens) for PPYPNQYQ [library array peptide, tested lactam constrained and linear] ? 4.04

Recall the recorded Diaphorase Linear, log 10 transformed median intensity for PPYTYANN [library array peptide, tested lactam constrained and linear] with human diaphorase (NQO1) (Homo sapiens) and state it. 4.00
